Would you kindly list cytotoxicity at 10 µM for each of these compounds?
Assay: Toxicity liver stage against HepG2, at 10uM
Format: cell-based
Parameters: test concentration 10 uM, cell line HepG2-A16-CD81EGFP
Settings: human, HepG2-A16-CD81EGFP cells; read-out: INHIBITION
The answer is to be given in %; state only the numeric part.

Identify cytotoxicity at 10 µM associated with the compound O=C(c1ccc2c(c1)OCO2)N1CCCC(Nc2ccc(F)cc2)C1 (stereo unspecified) -5.05

Identify cytotoxicity at 10 µM associated with the compound CC(=O)Nc1ccc(CNC(=O)CNCc2snnc2C)cc1 8.43

Identify cytotoxicity at 10 µM associated with the compound O=C(c1cnccn1)N1CCCC2(CCN(c3ncccn3)C2)C1 (stereo unspecified) 5.61

Identify cytotoxicity at 10 µM associated with the compound CCCc1nc(C)cc(N2CCC3(CCC(=O)N(CCO)C3)CC2)n1 -6.71

Identify cytotoxicity at 10 µM associated with the compound CS(=O)(=O)N1CCCC(c2nc(-c3ccccc3)c[nH]2)C1 (stereo unspecified) 2.44

Identify cytotoxicity at 10 µM associated with the compound Cc1cccnc1C(Cc1ccsc1)NC(=O)Cn1cccnc1=O (stereo unspecified) 3.08

Identify cytotoxicity at 10 µM associated with the compound NC(=O)C1CCN(C(=O)Cn2nc(-c3ccccc3)oc2=O)C1 (stereo unspecified) -13

Identify cytotoxicity at 10 µM associated with the compound O=C(C1CCC2(CCN(c3ncccn3)CC2)CO1)N1CCCC1 (stereo unspecified) 5.59

Identify cytotoxicity at 10 µM associated with the compound O=C([C@@H]1CCO[C@@H]2CCN(CCc3ccccc3)C[C@@H]21)N1CCCC1 -3.06

Identify cytotoxicity at 10 µM associated with the compound CC(=O)N1CCCN(C(=O)NCCNc2cnccn2)CC1 -2.28

Identify cytotoxicity at 10 µM associated with the compound Cc1ccc(C)c(S(=O)(=O)CCNC2CCc3ncnn3C2)c1 (stereo unspecified) -30.6

----------
Assay: Toxicity liver stage against HepG2, at 10uM
Assay type: cell-based
Design: test concentration 10 uM, cell line HepG2-A16-CD81EGFP
Settings: human, HepG2-A16-CD81EGFP cells; read-out: INHIBITION
Would you kindly list cytotoxicity at 10 µM for each of these compounds?
Be sure to follow the number with its unit.

Identify cytotoxicity at 10 µM associated with the compound CS(=O)(=O)N1CC(c2nc[nH]n2)c2cc(C(=O)NC3CCCC3)ccc21 (stereo not drawn) -131%

Identify cytotoxicity at 10 µM associated with the compound CC(NCc1cnc(C2CCC2)s1)c1ccccc1-n1cccn1 (stereo not drawn) 0.33%

Identify cytotoxicity at 10 µM associated with the compound CC(C)N(C)C(=O)c1ccc(Cl)c(NC(=O)COCC2CC2)c1 6.14%

Identify cytotoxicity at 10 µM associated with the compound c1ccc(N2CCN(Cc3cnc(C4CCCCO4)nc3)CC2)cc1 (stereo not drawn) 0.59%

Identify cytotoxicity at 10 µM associated with the compound Cc1nc2c(c(N3CCCOCC3)n1)CCN(C(=O)N1CCCC1)CC2 9.2%

Identify cytotoxicity at 10 µM associated with the compound CC(O)CN1CCC(CN(C)Cc2cccc(C#N)c2)CC1 (stereo not drawn) -1.3%

Identify cytotoxicity at 10 µM associated with the compound CN(c1ccc(C(C)(C)C)cc1)S(=O)(=O)c1cc(C(=O)O)cs1 -6.19%

Identify cytotoxicity at 10 µM associated with the compound CCOC1COC2(CCN(c3ncc(C)cn3)CC2)C1 (stereo not drawn) 7.21%

Identify cytotoxicity at 10 µM associated with the compound Cc1cc(-n2cncn2)ccc1C(=O)N(C)CC(F)(F)C(F)(F)F -10.3%

Identify cytotoxicity at 10 µM associated with the compound Cc1nc(N)sc1C(=O)N[C@H]1CN(CCO)C[C@@H]1C1CC1 1.81%

Identify cytotoxicity at 10 µM associated with the compound O=C(CC1CCCO1)NCCc1ccccc1Br (stereo not drawn) 5.63%

Identify cytotoxicity at 10 µM associated with the compound CCc1c(C)nn(CCN2CC3(CCOC3)CCC2=O)c1C (stereo not drawn) 1.94%

Identify cytotoxicity at 10 µM associated with the compound Cc1nn(C)c(C)c1CN(C)CC1(O)CCCN(C)C1 (stereo not drawn) 6.5%

Identify cytotoxicity at 10 µM associated with the compound Cc1cccc(N2CCC(NC(=O)CCCc3cccs3)CC2)n1 -12.5%

Identify cytotoxicity at 10 µM associated with the compound NS(=O)(=O)CCN1CCOC(c2ccc(Cl)cc2)C1 (stereo not drawn) -0.317%

Identify cytotoxicity at 10 µM associated with the compound CC(C)C(=O)N1CCCC12CCN(C(=O)c1ccno1)C2 (stereo not drawn) 7.49%

Identify cytotoxicity at 10 µM associated with the compound CCC(=O)Nc1ccc(C(C)NC(=O)COC)cc1 (stereo not drawn) -145%

Identify cytotoxicity at 10 µM associated with the compound CCOCCCNC(=O)C1(C)CCC(=O)N1Cc1ccccc1F (stereo not drawn) -5.57%

Identify cytotoxicity at 10 µM associated with the compound Cc1nc(NCCO)cc(C(C)Cn2nc(C)c(C)c2C)n1 (stereo not drawn) 4.41%

Identify cytotoxicity at 10 µM associated with the compound O=c1n(CCNCc2ccc(-c3ccccc3)cc2)nc2ccccn12 0.932%

Identify cytotoxicity at 10 µM associated with the compound c1ccc(Cn2ccnc2CN2CCCC2c2noc(C3CC3)n2)cc1 (stereo not drawn) -0.818%

Identify cytotoxicity at 10 µM associated with the compound Cc1cc(C(=O)NCCc2nc3c(s2)CCCC3)n(C)n1 20.5%

Identify cytotoxicity at 10 µM associated with the compound CC(=O)N1CCc2c(nc(N(C)C)nc2N(C)CCC2CCCCO2)C1 (stereo not drawn) -7.97%

Identify cytotoxicity at 10 µM associated with the compound Cc1ccoc1C(=O)N1CCn2cc(CN3CCCC3)nc2C1 -79.6%

Identify cytotoxicity at 10 µM associated with the compound CCc1cnc(N2CC[C@@H]3CN(C(C)=O)CCO[C@@H]3C2)nc1 9.1%

Identify cytotoxicity at 10 µM associated with the compound CNC(=O)CCN1CCCC1c1ccccc1Br (stereo not drawn) 15.3%

Identify cytotoxicity at 10 µM associated with the compound Cc1nnc(NC(=O)CN2CCCC2c2c(C)nn(C)c2C)s1 (stereo not drawn) -14.1%

Identify cytotoxicity at 10 µM associated with the compound Cc1cnc(C(=O)NCc2cccnc2OC(C)C)cn1 -23.4%

Identify cytotoxicity at 10 µM associated with the compound Cc1ccc(Nc2c(C#N)c(=O)n(C)c(=O)n2C)cc1F -4.99%

Identify cytotoxicity at 10 µM associated with the compound Cc1cn2c(n1)CCC(NC(=O)c1cncnc1C)C2 (stereo not drawn) -3.56%

Identify cytotoxicity at 10 µM associated with the compound O=C(NC1CCCCC1)c1ccc(COCC(F)(F)F)o1 14.1%

Identify cytotoxicity at 10 µM associated with the compound Cc1cc(C(=O)N2CC[C@]3(C[C@@H](OCc4ccccn4)CO3)C2)c(C)o1 -78.7%

Identify cytotoxicity at 10 µM associated with the compound CN1CCN(c2cc(CNCc3cccc4c3OCO4)ccn2)CC1 -5.31%

Identify cytotoxicity at 10 µM associated with the compound CN(C)C(=O)CN(C)C(=O)c1cccn1CCc1ccccc1 1.17%

Identify cytotoxicity at 10 µM associated with the compound CC1(C(=O)N2CCSCC2)CNCCO1 (stereo not drawn) 4.79%

Identify cytotoxicity at 10 µM associated with the compound CCc1ccc(CN(C)C(=O)c2cnc3c(c2)nc(N)n3CC)nc1 -5.55%

Identify cytotoxicity at 10 µM associated with the compound Cc1ccc(N[C@@H]2CN(Cc3cc(C)on3)C[C@@H]3CCCO[C@@H]32)nn1 -0.113%

Identify cytotoxicity at 10 µM associated with the compound Cc1nnc(C(C)N(C)Cc2c(C)nn(-c3ccccc3C)c2C)o1 (stereo not drawn) -1.07%

Identify cytotoxicity at 10 µM associated with the compound Cc1cc(CN2CCCC(C)(CO)C2)ccc1F (stereo not drawn) -20.4%

Identify cytotoxicity at 10 µM associated with the compound COCCN1CCC(CNC(=O)C2(C#N)CCCCC2)CC1 -11.1%

Identify cytotoxicity at 10 µM associated with the compound CCc1nnc2ccc(N3CCN(S(=O)(=O)c4ccc(C)s4)CC3)nn12 1.5%

Identify cytotoxicity at 10 µM associated with the compound Cc1ccc(C)c(CS(=O)(=O)CC(=O)Nc2ccc(F)cc2F)c1 3.28%

Identify cytotoxicity at 10 µM associated with the compound Cn1c(CN2CCCC2)nnc1C1CCCN(C(=O)C2CCOCC2)C1 (stereo not drawn) -17%

Identify cytotoxicity at 10 µM associated with the compound CC(C)c1nnc2ccc(N3CCC(C(=O)NC4CC4)CC3)nn12 -5.01%

Identify cytotoxicity at 10 µM associated with the compound O=C(C1CCOCC1)N1CCO[C@H]2[C@H](Oc3cccnc3)CC[C@@H]21 2.03%

Identify cytotoxicity at 10 µM associated with the compound Cc1nc2n(n1)CC(NCCc1cccs1)CC2 (stereo not drawn) -9.77%

Identify cytotoxicity at 10 µM associated with the compound NCCCC(=O)N1CCC2(CC1)CN(C(=O)c1ccc(Cl)cc1)CCO2 6.83%

Identify cytotoxicity at 10 µM associated with the compound O=C(C1CCOC1)N1CC[C@@H](O)[C@@H]1Cc1ccccc1 (stereo partly drawn) 9.34%
